Hello, the source for this data is patent US4902690A, in case you need it.

testTarget: Firefly phosphodiesterase enzyme
methodSummary: PDE inhibitory activity, firefly lantern
Assay type: biochemical, firefly (Photinus pyralis)
measurementConditions: FIG. 7; read-out: IC50 -inhibition
pIC50: −log10 of the molar value.
propertyMeasured: pIC50

Measured pIC50 of COc1ccc(C[C@H](N)C(=O)N[C@H]2[C@@H](O)[C@H](n3cnc4c(N(C)C)ncnc43)O[C@@H]2CO)cc1 : > 2.70

----------
methodSummary: Level of PDE inhibitor compound in insects in vivo
Parameters: species or system tobacco hornworms
measurementConditions: feeding 72 hours on tomato leaves treated with a 1% spray of theophylline; read-out: internal concentration within the insects
propertyMeasured: concentration (µM)
Value expressed in µM; do not type the unit.

The reported concentration of the compound Cn1c(=O)c2[nH]cnc2n(C)c1=O [theophylline] was 4000

----------
Tested on: tobacco hornworms (Manducca sexta)
methodSummary: In vivo leaf test (feeding on sprayed tomato leaves)
measurementConditions: agonist 10^-2 gm/100 ml, No PDE Inhibitor
As shown below, each of these molecules has a reported % Leaf Remaining value.

These recorded examples may help you get a feel for the data.
| molecule | % Leaf Remaining |
| --- | --- |
| Cc1cc(Cl)ccc1N=CN [DDCDM, di-demethylchlordimeform] | 7% |
| c1ccc(N=C2NCCN2)cc1 | 5% |
| NCC(O)c1ccc(Cl)cc1Cl (stereo not drawn) | < 5% |
| Clc1cccc(Cl)c1N=C1NCCN1 | 5% |
| CNCC(O)c1ccc(O)cc1 (racemic) [(±)-Nmethyloctopamine] | < 5% |
| Cc1cc(Cl)ccc1N=C1NCCN1 | 30% |
| CNC=Nc1ccc(Cl)cc1C [DCDM, mono-demethylchlordimeform] | 95% |
| CCc1cccc(CC)c1N=C1NCCN1 | 15% |

Here is another molecule to look at.
The value of % Leaf Remaining measured for the molecule Cc1cc(Cl)ccc1N=CN(C)C [CDM, chlordimeform] turned out to be < 5%
